Test system: NCI-H226
protocol_summary: NCI tumour cell line growth inhibition, 48 h
Activity calls are given as the source filed them. No stated cut-off is given here; in the data, active = GI50 up to about 1.1 µM and inactive = higher.
Classes used: active, inactive

compound	label
O=c1[nH]c(=O)n([C@@H]2O[C@H](CO)[C@@H](O)[C@@H]2F)cc1I	inactive
CC(C)(C)OC(=O)NC(Cc1c[nH]cn1)C(=O)N1CCCC1C(N)=O (stereo not given)	inactive
Nc1ccc(S(=O)(=O)Nc2ccc(Nc3c4ccccc4nc4ccccc34)cc2)cc1	active
CC(C)c1c(O[Si](C(C)C)(C(C)C)C(C)C)cc2c(c1O)CC[C@H]1C(C)(C)CCC[C@]21C	inactive
CCCCC(=O)OC[n+]1ccc(-c2c(COC(=O)NC(C)C)c(COC(=O)NC(C)C)c3n2CCC3)cc1	inactive
CC1=C(C#N)C2C(=C(C)N1)C(N)=Nc1ccccc12 (stereo not given)	inactive
CN(C)/C=N/c1cc(=O)n(C)c(=O)n1C	inactive
CCNCCNC(=O)c1ccc(I)cc1	inactive
Cc1ccc(NC(=O)c2cccc(OP(=O)(Nc3ccc(C)cc3)Nc3ccc(C)cc3)c2)cc1	inactive
O=C1Oc2ccccc2C(=O)/C1=C/N1C(=O)N/C(=C\c2ccccc2O)C1=O	inactive
c1ccc(CN2CCC(CNc3ncnc4ccccc34)C2)cc1 (stereo not given)	inactive
CC(=O)OC1C(O)C(C)OC(OC(=O)C2CCC3C(C2)OC2(CC(OC(=O)/C=C/c4ccccc4)C(C)CO2)C32CO2)C1OC1OC(C)C(O)C(O)C1O (stereo not given)	active
N#CCCN(CCC#N)c1ccc(/C=C(/NC(=O)c2cc([N+](=O)[O-])ccc2Cl)C(=O)NN)cc1	inactive
Fc1ccc(/N=N/N2CCCC2)cc1	inactive
COC1/C=C\C=C(/C)C(=O)NC2=CC(=O)C(N)=C(CC(C)CC(OC)C(O)C(C)C=C(C)C1OC(N)=O)C2=O (stereo not given)	inactive
NC1=NC(NCC2(CO)CCC2)=CC(OCC2(CO)CCC2)N1 (stereo not given)	inactive
O=c1[nH][nH]c(=S)c(=O)[nH]1	inactive
Cc1nc(NC(C)(CO)CO)nc(N/N=C/c2ccc(Cl)cc2)c1C(=O)Nc1ccc(Cl)cc1	inactive
CC1=NNC(=O)C1C1CC(c2c[nH]c3ccccc23)=NN(C(N)=O)C1=O (stereo not given)	inactive
Cc1ncc(-c2nnnn2-c2ccccc2)c(C(=O)O)n1	inactive

====

System: OVCAR-5
protocol_summary: NCI tumour cell line growth inhibition, 48 h
Activity calls are given as the source filed them. Cut-off read from the data, not from the text of the source: active = GI50 up to about 1.1 µM and inactive = higher.
observed_property: GI50

compound	endpoint_result
NC(=O)CCC(NC(=O)Cc1ccccc1)C(=O)O.NC(CCC(=O)NC(=O)Cc1ccccc1)C(=O)O (centres undefined)	> 8130 µM (inactive)
O=C1C2=C(c3ccccc31)C(c1ccccc1Cl)N1C(=O)CSC1=N2 (centres undefined)	> 100 µM (inactive)
CCCCn1c(-c2ccccc2)cs/c1=N\NC(=O)Cn1c(C)nc2ccccc21	> 100 µM (inactive)
CC(=O)O[C@@H]1CN(S(=O)(=O)c2ccc(C)cc2)C[C@@H]1C1CCCCC1	26.7 µM (inactive)
CC1(C)CC(=O)C2=C(C1)NC1=C(C2)C(=O)CC(C)(C)C1	> 100 µM (inactive)
CCOC(=O)C1=C(O)C(=O)c2ccoc2C1=O	> 100 µM (inactive)
Cc1cn(Cc2cn(CC3OC(n4cc(C)c(=O)[nH]c4=O)CC3O)nn2)c(=O)[nH]c1=O (centres undefined)	> 100 µM (inactive)
FC1(F)SC2CCCCCCCCCCC2C1(F)F (centres undefined)	47.5 µM (inactive)
COc1ccc(/C=C/[N+](=O)[O-])cc1	14.4 µM (inactive)
O=C1COc2cc(NC(=S)Nc3ccccc3)ccc2N1	> 100 µM (inactive)
CC(C)c1c(O[Si](C(C)C)(C(C)C)C(C)C)cc2c(c1O)CC[C@H]1C(C)(C)CCC[C@]21C	> 100 µM (inactive)
C=C1C(=O)OC2C=C(C)CC3C=C(CCC=C(C)CCC12)C(=O)O3 (centres undefined)	101 µM (inactive)
Cc1nc2c(sc(=S)n2-c2ccccc2)c2nc3ccccc3n12	> 100 µM (inactive)
O=C(O)CN1CCN(CC(=O)O)CCN(CC(=O)O)CC1	> 32 µM (inactive)
Cc1cc2c(c(/C=N/Cc3ccccc3)c1)OC1(C=C2)Oc2ccccc2C(=O)N1C (centres undefined)	21.4 µM (inactive)
COC1/C=C/C(C)C(O)CC(O)/C=C/C(C)C(C(C)C(OC)C(C)CCC(=O)C(C)C(C/C=C/N(C)C=O)OC)OC(=O)/C=C/C=C(\C)CC(OC)CC2=CC(=O)O[C@@H](C(C)C(OC)C1)[C@H]2O (some centres undefined)	0.0103 µM (active)
CC(C)(C)OC(=O)C1C(=O)NC(=O)CC1C(OCc1ccccc1)C(OCc1ccccc1)C(COCc1ccccc1)OCc1ccccc1 (centres undefined)	> 100 µM (inactive)
COc1ccc(-c2oc(/C=N/NC(N)=S)c([N+](=O)[O-])c2-c2ccc(OC)c(OC)c2)cc1OC	48.3 µM (inactive)
Cc1ccc(NC(=O)c2cccc(OP(=O)(Nc3ccc(C)cc3)Nc3ccc(C)cc3)c2)cc1	38.5 µM (inactive)

====

Test system: IGROV-1
protocol_summary: NCI tumour cell line growth inhibition, 48 h
Calls of active or inactive are those of the source. No stated cut-off is given here; in the data, active = GI50 up to about 1.1 µM and inactive = higher.
Labels: YES = active, NO = inactive

molecule	label
N#Cc1c(-c2ccccc2)c(/N=N/c2ccc(Cl)cc2)c(=O)n2c1[nH]c1ccccc12	NO
COc1ccc2c3c([nH]c2c1[N+](=O)[O-])C(C)N(Cc1ccccc1)CC3 (stereo not given)	NO
COc1ccccc1N1C(=O)CSC1c1c[nH]c2ccccc12 (stereo not given)	NO
COC(=O)[C@H]1NC(=O)CCSSC1(C)C	NO
CC(C)CCCCCCCCCCCCC(=O)NCC(=O)NC1C(O)C(O)C(Nc2[nH]cnc3ncnc2-3)OC1C(O)CO (stereo not given)	YES
CC(C)=CC(O)C/C(C)=C/CC/C(C)=C/CCC1(C)C(CCCO)/C(=C(/C)C=O)CCC1(C)O (stereo not given)	NO
CCC1OC2C(CC=C(C)C)=C3OC(C)(O)C(C)(CC)C(OC(=O)c4ccccc4)C3=C3OC(=O)C=C1C32 (stereo not given)	NO
Cc1nc2sc3ccccc3n2c(=O)c1/N=N/c1ccc(Br)cc1	NO
CC(=O)n1ccc2c(Cl)ncnc21	NO
CC(=O)Oc1cc2oc(=O)cc(C)c2cc1OC(C)=O	NO

====

GI50: recorded values
Tested on: SNB-19
protocol_summary: NCI tumour cell line growth inhibition, 48 h
The source made the active and inactive calls. Rule as the data show it: active = GI50 up to about 1.1 µM and inactive = higher.
observed_property: GI50

molecule	observed_property	endpoint_result
c1ccc(C[N+]23CN4CN(CN(C4)C2)C3)cc1	GI50	26.4 µM (inactive)
C=C1C(=O)OC2C=C(C)CC3C=C(CCC=C(C)CCC12)C(=O)O3 (centres undefined)	GI50	122 µM (inactive)
C/C=C(\C)C(=O)OC1C2C(C)C(=O)OC2C(O)C(C)C2C=CC(=O)C21C (centres undefined)	GI50	13.2 µM (inactive)
N=C(N)N/N=C/c1oc(-c2ccc(S(=O)(=O)O)o2)c(-c2ccc(S(=O)(=O)O)o2)c1[N+](=O)[O-]	GI50	> 100 µM (inactive)
COc1ccc(/N=c2/[nH]c(N)c(C(=O)c3ccc(OC)cc3)s2)cc1	GI50	0.474 µM (active)
O=c1c2ccccc2nc(N/N=C/c2ccccc2O)n1-c1ccccc1	GI50	56.5 µM (inactive)
O=C(Nc1cccc2ccccc12)Oc1ccccc1C1CCCCC1	GI50	53.6 µM (inactive)
Cc1ccc(S(=O)(=O)C2=c3nc4ccccc4cc3=C3C(=O)c4ccccc4C(=O)C32)cc1 (centres undefined)	GI50	> 100 µM (inactive)
COc1ccccc1N1C(=O)CSC1c1c[nH]c2ccccc12 (centres undefined)	GI50	> 100 µM (inactive)

====

Test system: COLO 205
protocol_summary: NCI tumour cell line growth inhibition, 48 h
The source made the active and inactive calls. Rule as the data show it: active = GI50 up to about 1.1 µM and inactive = higher.
Possible outcomes: active, inactive

compound	target_under_test	label
COC(=O)[C@@]12CN(C)[C@@H](C(C)(C)C)N1C(=O)OC2c1ccccc1 (some centres not stated)	COLO 205	inactive
CC(C)c1c(O[Si](C(C)C)(C(C)C)C(C)C)cc2c(c1O)CC[C@H]1C(C)(C)CCC[C@]21C	COLO 205	inactive
O=c1[nH]c(=O)n([C@@H]2O[C@H](CO)[C@@H](O)[C@@H]2F)cc1I	COLO 205	inactive
C=C1C(=O)OC2/C=C(CO)/C=C\C3OC3(C)CC(OC(=O)/C(C)=C/COC(C)=O)C12 (configuration not stated)	COLO 205	inactive
O=C(O)c1ccc(Nc2nc3ccc(C(F)(F)F)cc3nc2C(=O)O)cc1	COLO 205	inactive
COc1cc(S(=O)(=O)Nc2ccc(-c3csc(/N=C\c4cccs4)n3)cc2)ccc1Cl	COLO 205	inactive
O=C(c1ccc(Cl)cc1)c1ccc(OCCSCCCCCCCCCCSCCOc2ccc(C(=O)c3ccc(Cl)cc3)cc2)cc1	COLO 205	inactive
O=C(OCc1ccccc1)N(CCCCN(CCCNCc1ccccc1)C(=O)OCc1ccccc1)CCCNCc1ccccc1	COLO 205	active
Cc1c(C(=O)O)n2c(S)nnc2c2ccccc12	COLO 205	inactive
O=C1COc2cc(NC(=S)Nc3ccccc3)ccc2N1	COLO 205	inactive
COc1ccc(CC(=O)NCCc2ccc(OC)c(OC)c2)cc1Br	COLO 205	inactive
O=C1Oc2ccccc2C(=O)/C1=C/N1C(=O)N/C(=C\c2ccccc2O)C1=O	COLO 205	inactive
O=C(CC/C(CC(=O)c1ccc(Cl)cc1)=N/O)Nc1ccc(Cl)c(Cl)c1	COLO 205	inactive
CC(=O)n1[nH]c(=O)n(-c2ccc(Cl)cc2)c1=O	COLO 205	inactive
C=CCC1(CN(C)C)CC/C(=C\c2ccc(OC)cc2)C1=O (configuration not stated)	COLO 205	inactive
CCOC(=O)C(C(=O)OCC)C(NC(=O)Nc1cc(C(F)(F)F)ccc1OC)(C(F)(F)F)C(F)(F)F	COLO 205	inactive
CN(Cc1cc(Cl)cc(Cl)c1)CC(C(=O)c1ccccc1)c1ccccc1 (configuration not stated)	COLO 205	inactive
COc1cc2ccc(/C(C)=N/OC(C)=O)cc2cc1OC	COLO 205	inactive
C1=NN2C(c3ccccc3)=NOC2C2C(c3ccccc3)=NOC12 (configuration not stated)	COLO 205	inactive
COc1ccc(-c2oc(/C=N/NC(N)=S)c([N+](=O)[O-])c2-c2ccc(OC)c(OC)c2)cc1OC	COLO 205	inactive
O=C1C2=Nc3ccccc3C(O)N2c2ccccc21 (configuration not stated)	COLO 205	inactive
COC(=O)C1=C(C)NC(C)=C(C(=O)OC)C1c1nc2sccn2c1[N+](=O)[O-]	COLO 205	inactive
c1ccc(C[N+]23CN4CN(CN(C4)C2)C3)cc1	COLO 205	inactive
CCN(CC)CCCn1c(=O)c2cccnc2n2c3c(=O)n(C)c(=O)n(C)c3nc12	COLO 205	inactive
CN(Cc1cnc2nc(N)nc(N)c2n1)c1ccc(C(=O)NC23CC4CC(CC(C4)C2)C3)cc1	COLO 205	inactive
CCOC(=O)/C(C(=S)NC)=C(/N)N1CCCC1	COLO 205	inactive
CC(=O)O[C@@H]1CN(S(=O)(=O)c2ccc(C)cc2)C[C@@H]1C1CCCCC1	COLO 205	inactive
O=c1cc(CO)n(CCc2c[nH]c3ccccc23)cc1O	COLO 205	inactive
COc1ccc(/C=C/[N+](=O)[O-])cc1	COLO 205	inactive
CCOC(=O)C(NC(=O)CC)(Nc1ccc(S(=O)(=O)Nc2ncccn2)cc1)C(F)(F)F (configuration not stated)	COLO 205	inactive
COC(=O)C#Cc1ccc([N+](=O)[O-])cc1	COLO 205	inactive
CCCCc1c2c(nc3c1CC/C(=C\c1ccc([N+](=O)[O-])cc1)C3=O)CCCC2	COLO 205	inactive
C/C(=C\CBr)CCC(Br)C(C)(C)Cl (configuration not stated)	COLO 205	inactive
C/C(=N\NC(=S)NCCCNC(=S)N/N=C(\C)c1ccccn1)c1ccccn1	COLO 205	inactive
Clc1ccc(-c2c(C3=NCCN3)nnn2-c2ccccc2)cc1	COLO 205	inactive
O=C(C(=O)c1cc(-c2ccccc2)nc2ccc3ccccc3c12)c1ccccc1	COLO 205	inactive
COc1ccc(-n2nnnc2C2(Nc3ccccc3)CCN(Cc3ccccc3)CC2)cc1	COLO 205	inactive
CC[C@@]1(O)C(=O)OCc2c1cc1n(c2=O)Cc2c-1nc1ccccc1c2/C=N/NC(=O)c1ccc(N)cc1	COLO 205	inactive
COc1ccc2c3c(c(C(=O)c4ccccc4)oc13)CCC2	COLO 205	inactive
COc1nc(N)c(NC2OC(CO)C(O)C2O)c(=O)[nH]1 (configuration not stated)	COLO 205	inactive
O=C(O)CCN(CCCCN(CCC(=O)O)CCC(=O)O)CCC(=O)O	COLO 205	inactive
CCOC(=O)C1=C(O)C(=O)c2ccoc2C1=O	COLO 205	inactive

Each recorded value in this set is attributed to ChEMBL document CHEMBL1201862.
